In this section we review reported Kd values for a set of binders.
ASSAY SYSTEM: T1, EsCas13d, nuclease-dead (Eubacterium siraeum, UniProt B0MS50, R295A;H300A;R849A;H854A)
T1 sequence: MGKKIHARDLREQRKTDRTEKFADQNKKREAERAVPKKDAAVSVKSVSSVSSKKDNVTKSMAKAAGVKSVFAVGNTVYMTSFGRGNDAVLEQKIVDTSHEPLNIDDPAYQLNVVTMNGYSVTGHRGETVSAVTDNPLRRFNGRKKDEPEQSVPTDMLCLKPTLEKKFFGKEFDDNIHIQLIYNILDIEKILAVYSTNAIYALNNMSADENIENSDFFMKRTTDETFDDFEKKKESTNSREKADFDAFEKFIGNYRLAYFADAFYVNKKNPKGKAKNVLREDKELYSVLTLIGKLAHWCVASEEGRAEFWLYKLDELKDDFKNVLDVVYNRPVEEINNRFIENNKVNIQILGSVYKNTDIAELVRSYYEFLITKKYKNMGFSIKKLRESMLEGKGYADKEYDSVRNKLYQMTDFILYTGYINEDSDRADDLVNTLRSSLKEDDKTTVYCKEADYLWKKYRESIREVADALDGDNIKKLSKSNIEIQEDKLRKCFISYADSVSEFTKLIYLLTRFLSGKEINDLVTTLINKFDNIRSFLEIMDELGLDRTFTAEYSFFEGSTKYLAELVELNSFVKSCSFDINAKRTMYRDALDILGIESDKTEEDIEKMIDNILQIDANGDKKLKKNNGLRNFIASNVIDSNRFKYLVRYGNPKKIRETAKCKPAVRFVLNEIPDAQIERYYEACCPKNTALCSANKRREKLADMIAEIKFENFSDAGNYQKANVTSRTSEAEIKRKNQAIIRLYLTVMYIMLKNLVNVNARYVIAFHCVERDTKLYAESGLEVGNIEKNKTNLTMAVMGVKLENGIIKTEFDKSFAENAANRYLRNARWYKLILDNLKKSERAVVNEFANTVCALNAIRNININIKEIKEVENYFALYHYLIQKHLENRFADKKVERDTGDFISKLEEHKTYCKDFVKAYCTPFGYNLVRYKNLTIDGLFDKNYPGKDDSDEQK
MEASUREMENT DESCRIPTION: crRNA (strand 1, pre-loaded); Mg2+; 40 mM Tris-HCl pH 7.5, 150 mM NaCl, 6 mM MgCl2, 1 mM DTT, 0.1% Tween-20, 0.2 mg/ml BSA; 25 C; 10 min per concentration, then washed
CONDITION NOTES: tags: His6-TwinStrep-SUMO cleaved; N-terminal SNAP kept (SNAP-Surface 488); label: 3' end held by stalled T7 RNA polymerase

BINDER | Kd / nM
target 2 MT 5'PFS GGU 3'PFS CUG (mixed) RNA 1: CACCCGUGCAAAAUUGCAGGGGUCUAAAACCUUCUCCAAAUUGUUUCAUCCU RNA 2: GGGAAUGGAUCCACAUCUACGAAUUCGGUAGGAUGAAACAAUUUGGAGAAGCUGAGAUCGGAAGAGCACACGU | 14
target 1 insG 3' of 11,insU 3' of 4 (mixed) RNA 1: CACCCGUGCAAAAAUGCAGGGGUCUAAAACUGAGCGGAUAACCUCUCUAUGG RNA 2: GGGAAUGGAUCCACAUCUACGAAUUCGUACCAUAGAGAGGUGUAUCCGCUUCACCGAGAUCGGAAGAGCACACGU | 65
target 1 insC 3' of 20,insC 3' of 12 (mixed) RNA 1: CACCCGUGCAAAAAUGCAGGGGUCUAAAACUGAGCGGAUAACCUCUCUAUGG RNA 2: GGGAAUGGAUCCACAUCUACGAAUUCGUACCACUAGAGAGGCUUAUCCGCUCACCGAGAUCGGAAGAGCACACGU | 11.9
target 1 insG 3' of 21 (mixed) RNA 1: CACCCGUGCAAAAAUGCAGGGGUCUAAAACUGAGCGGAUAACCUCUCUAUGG RNA 2: GGGAAUGGAUCCACAUCUACGAAUUCGUACCGAUAGAGAGGUUAUCCGCUCACCGAGAUCGGAAGAGCACACGU | 67
target 3 insG 3' of 6,insA 3' of 2 (mixed) RNA 1: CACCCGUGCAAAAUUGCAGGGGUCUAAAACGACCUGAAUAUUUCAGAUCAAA RNA 2: GGGAAUGGAUCCACAUCUACGAAUUCGUUUUUGAUCUGAAAUAUUCGAGGUACUGCAGAUCGGAAGAGCACACGU | 15.6
target 1 C4A,U8G (mixed) RNA 1: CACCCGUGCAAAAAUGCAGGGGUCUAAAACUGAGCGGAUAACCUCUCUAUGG RNA 2: GGGAAUGGAUCCACAUCUACGAAUUCGUACCAUAGAGAGGUUAGCCGAUCACCGAGAUCGGAAGAGCACACGU | 10.3
target 2 MT 5'PFS GGC 3'PFS UAA (mixed) RNA 1: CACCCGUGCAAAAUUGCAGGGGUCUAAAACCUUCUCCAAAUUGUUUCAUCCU RNA 2: GGGAAUGGAUCCACAUCUACGAAUUCGGCAGGAUGAAACAAUUUGGAGAAGUAAAGAUCGGAAGAGCACACGU | 9.4
target 2 MT 5'PFS CGG 3'PFS CGC (mixed) RNA 1: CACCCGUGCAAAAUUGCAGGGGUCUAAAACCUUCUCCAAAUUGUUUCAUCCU RNA 2: GGGAAUGGAUCCACAUCUACGAAUUCCGGAGGAUGAAACAAUUUGGAGAAGCGCAGAUCGGAAGAGCACACGU | 3.81
target 2 MT 5'PFS GGC 3'PFS ACG (mixed) RNA 1: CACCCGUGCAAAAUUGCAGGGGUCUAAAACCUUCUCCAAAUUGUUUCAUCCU RNA 2: GGGAAUGGAUCCACAUCUACGAAUUCGGCAGGAUGAAACAAUUUGGAGAAGACGAGAUCGGAAGAGCACACGU | 15.8
target 2 MT 5'PFS GGC 3'PFS ACU (mixed) RNA 1: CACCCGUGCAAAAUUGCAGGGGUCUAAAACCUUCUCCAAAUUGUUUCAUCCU RNA 2: GGGAAUGGAUCCACAUCUACGAAUUCGGCAGGAUGAAACAAUUUGGAGAAGACUAGAUCGGAAGAGCACACGU | 21.3
target 1 MT 5'PFS AAU 3'PFS UAU (mixed) RNA 1: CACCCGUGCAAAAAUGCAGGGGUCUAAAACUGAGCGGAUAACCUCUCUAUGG RNA 2: GGGAAUGGAUCCACAUCUACGAAUUCAAUCCAUAGAGAGGUUAUCCGCUCAUAUAGAUCGGAAGAGCACACGU | 72
target 3 A5G,A9G (mixed) RNA 1: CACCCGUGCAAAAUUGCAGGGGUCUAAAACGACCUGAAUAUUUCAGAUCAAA RNA 2: GGGAAUGGAUCCACAUCUACGAAUUCGUUUUUGAUCUGAAAUGUUCGGGUCUGCAGAUCGGAAGAGCACACGU | 73
target 1 C7G,A18C (mixed) RNA 1: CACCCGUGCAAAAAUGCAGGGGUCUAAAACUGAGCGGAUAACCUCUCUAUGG RNA 2: GGGAAUGGAUCCACAUCUACGAAUUCGUACCAUCGAGAGGUUAUGCGCUCACCGAGAUCGGAAGAGCACACGU | 81
target 2 MT 5'PFS GAC 3'PFS CAC (mixed) RNA 1: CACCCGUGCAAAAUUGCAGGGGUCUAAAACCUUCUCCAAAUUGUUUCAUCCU RNA 2: GGGAAUGGAUCCACAUCUACGAAUUCGACAGGAUGAAACAAUUUGGAGAAGCACAGAUCGGAAGAGCACACGU | 12.9
